Test system: SHR-SP isolated aorta
Assay: direct vasodilatory effects in aorta isolated from ND and HSFD SHR-SP
Set-up: species or system rat
Details: aorta from HSFD SHR-SP; read-out: EC50, direct vasodilation
quantity_kind: EC50 (nM)
Answer with a number only, understood to be in nM.

So what's the measured EC50 for this one? `COC(=O)Nc1c(N)nc(-c2nn(Cc3ccccc3F)c3ncccc23)nc1N`
54

----------
Biological target: sGC (Rattus norvegicus, UniProt P20595)
Construct: in rat aortic smooth muscle cells; endogenous in cells; host or cells: primary rat aortic smooth muscle cells
Sequence (P20595 whole entry): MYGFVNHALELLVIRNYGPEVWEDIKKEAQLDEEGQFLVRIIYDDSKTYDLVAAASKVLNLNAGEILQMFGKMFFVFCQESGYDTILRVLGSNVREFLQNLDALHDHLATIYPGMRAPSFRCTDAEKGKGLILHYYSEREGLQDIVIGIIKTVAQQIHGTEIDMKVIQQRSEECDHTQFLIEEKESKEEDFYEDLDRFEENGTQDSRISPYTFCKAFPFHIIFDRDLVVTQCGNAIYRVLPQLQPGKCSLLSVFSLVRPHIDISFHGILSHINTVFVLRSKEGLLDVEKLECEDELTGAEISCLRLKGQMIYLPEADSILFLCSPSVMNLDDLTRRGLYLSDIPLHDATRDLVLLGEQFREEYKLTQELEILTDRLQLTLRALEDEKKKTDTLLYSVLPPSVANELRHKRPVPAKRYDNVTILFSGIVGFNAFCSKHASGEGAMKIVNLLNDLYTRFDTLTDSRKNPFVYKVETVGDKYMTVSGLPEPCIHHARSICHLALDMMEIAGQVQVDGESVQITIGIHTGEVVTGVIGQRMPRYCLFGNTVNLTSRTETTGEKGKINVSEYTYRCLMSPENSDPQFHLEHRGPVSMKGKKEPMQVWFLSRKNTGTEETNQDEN
Sequence (P19686 whole entry partner): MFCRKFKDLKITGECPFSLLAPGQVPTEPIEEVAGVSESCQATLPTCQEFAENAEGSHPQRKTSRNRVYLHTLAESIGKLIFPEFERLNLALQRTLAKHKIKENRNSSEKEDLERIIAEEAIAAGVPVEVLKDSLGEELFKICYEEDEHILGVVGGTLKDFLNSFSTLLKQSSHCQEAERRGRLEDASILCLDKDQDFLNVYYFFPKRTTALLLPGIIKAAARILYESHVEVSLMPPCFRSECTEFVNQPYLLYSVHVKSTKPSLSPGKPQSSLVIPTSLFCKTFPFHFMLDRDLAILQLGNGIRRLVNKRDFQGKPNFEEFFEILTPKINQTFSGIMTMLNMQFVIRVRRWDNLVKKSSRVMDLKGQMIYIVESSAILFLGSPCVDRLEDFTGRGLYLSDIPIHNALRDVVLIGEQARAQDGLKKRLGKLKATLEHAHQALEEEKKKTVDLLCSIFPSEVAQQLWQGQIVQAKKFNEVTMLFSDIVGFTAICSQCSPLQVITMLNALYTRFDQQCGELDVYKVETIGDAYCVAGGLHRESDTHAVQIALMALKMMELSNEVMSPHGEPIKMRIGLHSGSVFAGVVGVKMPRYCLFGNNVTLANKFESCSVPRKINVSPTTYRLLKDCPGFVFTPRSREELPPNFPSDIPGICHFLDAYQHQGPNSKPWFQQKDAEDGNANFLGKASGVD
Test: P-VASP formation in rat aortic smooth muscle cells
Type: cell-based
Conditions: ODQ (10 μM) pre-treatment
Let's look at some compounds and their measured EC50.
Give a bare numeral; the unit nM is implied.

compound: Cc1cc(-c2ccc(OC(F)(F)F)cc2)ccc1COc1ccccc1-c1cccc(-n2ncc(C(=O)O)c2C(F)(F)F)n1 [GSK2181236A]
quantity_kind: EC50
measured_result: 2.7

Let us examine a further case.
What does the data say about its EC50? Entry: `COC(=O)Nc1c(N)nc(-c2nn(Cc3ccccc3F)c3ncccc23)nc1N`
3260
